- Tested on: HCI01 (cells of a triple-negative basal-like breast cancer xenograft)
- assay comment: cell viability (% of vehicle); higher = less cytotoxic
- condition label: 10 µM; 72 h
Where a name gives a salt, the structure may show the parent alone.
quantity measured: cell viability
Please give only the number in your answer, with no unit.

# molecule, test system, cell viability
records = [
    ("O=C(O)c1cc(O)c(O)c(O)c1", "HCI01", 77.5),
    ("Br.CN1CCCC1Cc1c[nH]c2ccc(CCS(=O)(=O)c3ccccc3)cc12 (stereo not given)", "HCI01", 91.4),
    ("COc1nc2ccc(Br)cc2cc1[C@@H](c1ccccc1)[C@@](O)(CCN(C)C)c1cccc2ccccc12 [Bedaquiline fumarate]", "HCI01", 79.1),
]

Notebook: Nc1ncnc2c1ncn2C1OC(CO)C(O)C1O (stereo not given) [Adenosine] , cell viability read as 99.7

Notebook: COCCn1c2c([n+](Cc3cnccn3)c1C)C(=O)c1ccccc1C2=O.[Br-] , cell viability read as 85.5

====

- Tested on: HCI03 (cells of an ER-positive luminal breast cancer xenograft)
- assay comment: cell viability (% of vehicle); higher = less cytotoxic
- condition label: 10 µM; 72 h
quantity measured: cell viability
Please give only the number in your answer, with no unit.

Solved cases (3 shown):
# compound, cell viability
records = [
    ("O=c1ccc2ccccc2o1", 145),
    ("CN1CC(=O)N2[C@H](c3ccc4c(c3)OCO4)c3[nH]c4ccccc4c3C[C@@H]2C1=O", 150),
    ("COC(=O)C1C2CC3c4[nH]c5cc(OC)ccc5c4CCN3CC2CC(OC(=O)c2cc(OC)c(OC)c(OC)c2)C1OC.Cl (centres undefined) [Reserpine hydrochloride]", 114),
]

Next compound, cell viability to be filled in.
Notebook: CCCC(CCC)C(=O)[O-].[Na+] [Valproic acid sodium salt (Sodium valproate)] , cell viability read as 154

====

- Test system: HCI13 (cells of an ER-positive luminal breast cancer xenograft)
- assay comment: cell viability (% of vehicle); higher = less cytotoxic
- condition label: 10 µM; 72 h
The reader will find reported cell viability values listed item by item below.

Notebook: CC(=O)OCC(=O)C1(O)CCC2C3CCC4=CC(=O)CCC4(C)C3C(=O)CC21C (centres undefined) [Cortisone acetate] , cell viability read as 96.1

Notebook: CC(Oc1cc(-c2cnn(C3CCNCC3)c2)cnc1N)c1c(Cl)ccc(F)c1Cl [(R)-Crizotinib] , cell viability read as 142

Notebook: O=C(O)CCC(=O)O.O=C(OC1CN2CCC1CC2)N1CCc2ccccc2C1c1ccccc1 (centres undefined) [Solifenacin succinate] , cell viability read as 118

Notebook: NC(CO)(CO)CO.O=C(c1ccccc1)c1ccc2n1CCC2C(=O)O (centres undefined) [Ketorolac tromethamine salt] , cell viability read as 122

====

The reader will find reported cell viability values listed item by item below.
- System: HCI01
- assay comment: cell viability (% of vehicle); higher = less cytotoxic
- condition label: 10 µM; 72 h
Please give only the number in your answer, with no unit.

# compound, cell viability
records = [
    ("COc1cc(OC)c(C=CS(=O)(=O)Cc2ccc(OC)c(NCC(=O)[O-])c2)c(OC)c1.[Na+]", 127),
]

Entry CNNCc1ccc(C(=O)NC(C)C)cc1.Cl [Procarbazine HCl] , HCI01 data, cell viability value: 93.5

Entry CCC(=C(c1ccccc1)c1ccc(OCCN(C)C)cc1)c1ccccc1.O=C(O)CC(O)(CC(=O)O)C(=O)O [Tamoxifen Citrate] , HCI01 data, cell viability value: 74

Entry Cl.NC(N)=NC(=O)Cc1c(Cl)cccc1Cl [Guanfacine hydrochloride] , HCI01 data, cell viability value: 117

====

- System: WHIM2 (cells of a triple-negative basal-like breast cancer xenograft)
- assay comment: cell viability (% of vehicle); higher = less cytotoxic
- condition label: 10 µM; 72 h
quantity measured: cell viability
Please give only the number in your answer, with no unit.

Notebook: CCCC1CC(C(=O)NC(C(C)Cl)C2OC(SC)C(O)C(O)C2O)N(C)C1 (stereo not drawn) , cell viability read as 117

Notebook: Nc1c(CC(=O)[O-])cccc1C(=O)c1ccc(Br)cc1.[Na+] [Bromfenac Sodium] , cell viability read as 132

Notebook: C=CC[C@@H]1/C=C(\C)C[C@H](C)C[C@H](OC)[C@H]2O[C@@](O)(C(=O)C(=O)N3CCCC[C@H]3C(=O)O[C@H](/C(C)=C/[C@@H]3CC[C@@H](O)[C@H](OC)C3)[C@H](C)[C@@H](O)CC1=O)[C@H](C)C[C@@H]2OC , cell viability read as 85.9

====

- Tested on: WHIM30 (cells of a triple-negative basal-like breast cancer xenograft)
- assay comment: cell viability (% of vehicle); higher = less cytotoxic
- condition label: 10 µM; 72 h
Where a name gives a salt, the structure may show the parent alone.
quantity measured: cell viability
Please give only the number in your answer, with no unit.

Solved cases (2 shown):
# compound, quantity measured, readout value
rows = [
    ("Cc1ncc([N+](=O)[O-])n1CCO", "cell viability", 131),
    ("COc1cc(C(=O)NS(=O)(=O)c2ccccc2C)ccc1Cc1cn(C)c2ccc(NC(=O)OC3CCCC3)cc12", "cell viability", 116),
]

Entry OC(Cn1cncn1)(Cn1cncn1)c1ccc(F)cc1F , WHIM30 data, cell viability value: 180

Entry Nc1ccn(CC(CO)OCP(=O)(O)O)c(=O)n1.O.O (stereo not drawn) [Cidofovir dihydrate] , WHIM30 data, cell viability value: 81

Entry CCOC(=O)c1ccc(C#Cc2ccc3c(c2)C(C)(C)CCS3)nc1 , WHIM30 data, cell viability value: 188

Entry Clc1ccc(COC(Cn2ccnc2)c2ccc(Cl)cc2Cl)c(Cl)c1.O=[N+]([O-])O (stereo not drawn) [Miconazole Nitrate] , WHIM30 data, cell viability value: 128

Entry CCC(Nc1ncnc2nc[nH]c12)c1nc2cccc(F)c2c(=O)n1-c1ccccc1 (stereo not drawn) , WHIM30 data, cell viability value: 122

Entry CS(=O)(=O)Nc1ccc([N+](=O)[O-])cc1Oc1ccccc1 [Nimesulide] , WHIM30 data, cell viability value: 92.5

Entry CC(O)C1C(=O)N2C(C(=O)O)=C(SC3CNC(CNS(N)(=O)=O)C3)C(C)C12.O (stereo not drawn) [Doripenem Hydrate] , WHIM30 data, cell viability value: 109

Entry CC(Nc1ncnc2nc[nH]c12)c1cc2cccc(Cl)c2c(=O)n1-c1ccccc1 (stereo not drawn) , WHIM30 data, cell viability value: 95.3

Entry NCC(=O)CCC(=O)O [5-Aminolevulinic acid HCl] , WHIM30 data, cell viability value: 146

Entry CN(Cc1cc(Br)cc(Br)c1N)C1CCCCC1.Cl [Bromhexine HCl] , WHIM30 data, cell viability value: 108

====

- Test system: UCD52 (cells of a triple-negative basal-like breast cancer xenograft)
- assay comment: cell viability of combination (% of vehicle); higher = less cytotoxic
- condition label: 1 µM; 72 h; partner dose: 10 nM
quantity measured: cell viability of combination
Please give only the number in your answer, with no unit.

# compound, test system, cell viability of combination
rows = [
    ("CC(C)C1=CC(=C2NNC(=O)N2c2ccc3c(ccn3C)c2)C(=O)C=C1O [Ganetespib (STA-9090)] + CN(C)C/C=C/C(=O)Nc1cc2c(Nc3ccc(F)c(Cl)c3)ncnc2cc1O[C@H]1CCOC1", "UCD52", 30.9),
    ("C=C1C(=CC=C2CCCC3(C)C2CCC3C(C)C=CC(C)C(C)C)CC(O)CC1O (centres undefined) [Doxercalciferol] + CN(C)C/C=C/C(=O)Nc1cc2c(Nc3ccc(F)c(Cl)c3)ncnc2cc1O[C@H]1CCOC1", "UCD52", 47.6),
    ("COc1ccc(C[C@H](N)C(=O)N[C@@H]2[C@H](O)[C@H](n3cnc4c(N(C)C)ncnc43)O[C@@H]2CO)cc1.Cl.Cl [Puromycin dihydrochloride] + CN(C)C/C=C/C(=O)Nc1cc2c(Nc3ccc(F)c(Cl)c3)ncnc2cc1O[C@H]1CCOC1", "UCD52", 18.2),
]

Next compound, cell viability of combination to be filled in.
Notebook: CO[C@H]1/C=C/O[C@@]2(C)Oc3c(C)c(O)c4c(O)c(c(/C=N/N5CCN(C6CCCC6)CC5)c(O)c4c3C2=O)NC(=O)/C(C)=C\C=C\[C@H](C)[C@H](O)[C@@H](C)[C@@H](O)[C@@H](C)[C@H](OC(C)=O)[C@@H]1C [Rifapentine] + CN(C)C/C=C/C(=O)Nc1cc2c(Nc3ccc(F)c(Cl)c3)ncnc2cc1O[C@H]1CCOC1 , cell viability of combination read as 72.2

====

The reader will find reported cell viability values listed item by item below.
- Test system: WHIM30
- assay comment: cell viability (% of vehicle); higher = less cytotoxic
- condition label: 10 µM; 72 h
Counter-ions that a name gives are not always drawn.

Solved cases (5 shown):
# compound, quantity measured, readout value
measured = [
    ("Oc1ccc(OC2CCCCO2)cc1 (stereo not drawn) [Deoxyarbutin]", "cell viability", 117),
    ("CN(C)C(CCOc1cccc2ccccc12)c1ccccc1.Cl (stereo not drawn) [Dapoxetine HCl]", "cell viability", 98.4),
    ("COc1ccc(C(=O)CC(=O)c2ccc(C(C)(C)C)cc2)cc1 [Avobenzone]", "cell viability", 141),
    ("CC1c2cccc(O)c2C(O)=C2C(=O)C3(O)C(O)=C(C(N)=O)C(=O)C(N(C)C)C3C(O)C21.Cl (stereo not drawn) [Doxycycline hyclate]", "cell viability", 173),
    ("CC(C)(C)c1ccc(C(O)CCCN2CCC(C(O)(c3ccccc3)c3ccccc3)CC2)cc1 (stereo not drawn) [Terfenadine]", "cell viability", 29.6),
]

Entry COc1ccc(-c2ccc3cc(C(=O)O)ccc3c2)cc1C12CC3CC(CC(C3)C1)C2 [Adapalene sodium salt] , WHIM30 data, cell viability value: 96.8

Entry COCCOC(=O)C1=C(C)NC(C)=C(C(=O)OC(C)C)C1c1cccc([N+](=O)[O-])c1 (stereo not drawn) [Nimodipine] , WHIM30 data, cell viability value: 157

Entry O=C(O)c1ccccc1O [Salicylic acid] , WHIM30 data, cell viability value: 118

These entries and their values trace back to the supplement of paper PMC6992640.
